Please respond with reported solubility kinetic at 10 min for every item in the list.
MEASUREMENT NOTES: Solubility determination
Assay type: physicochemical
CONDITION DETAILS: 22 °C, aqueous buffer, kinetic from dmso stock
Numbered stars: 1 amine (or outer) side, 2 acyl side, 3 side chain; on linkers, the order of the positions; unused ones are H or OH. Bridge positions count the residues as written; N and C are the ends. Square brackets hold non-standard residues; d marks the D form. Peptide text beside a SMILES is read from it. * marks the point of attachment. Piperazine(2S-CO,4-Me) = CN1CCN[C@H](C(=O)O)C1; Phe(3-Cl) = N[C@@H](Cc1cccc(Cl)c1)C(=O)O; NH(4-Cl-2-F-phenyl) = Fc1cc(Cl)ccc1N*; Pro(4R-Me) = C[C@H]1CN[C@H](C(=O)O)C1; aThr = C[C@H](O)[C@H](N)C(=O)O; CO = O=C([*:1])[*:2]
Please respond with the number in µM and leave the unit unwritten.

State its solubility kinetic at 10 min: Cc1cccc(C[C@H](NC(=O)Nc2ccc3c(c2)OCCO3)C(=O)N[C@H]2COC(=O)[C@@H]3C[C@@H](C)CN3C(=O)[C@H](C)NC(=O)[C@@H]3CCCCN3C(=O)[C@@H]3CCCN3C2=O)c1
3.3

Report measured solubility kinetic at 10 min; entry is C[C@@H]1C[C@H]2C(=O)O[C@@H](C)[C@H](NC(=O)[C@H](Cc3cccc(Cl)c3)NC(=O)Nc3ccc(Cl)cc3F)C(=O)N3CCC[C@H]3C(=O)N3CCN(C)C[C@H]3C(=O)N[C@@H](C)C(=O)N2C1 [Compound 33] ({NH(4-Cl-2-F-phenyl)-CO}-[Phe(3-Cl)][aThr]P[Piperazine(2S-CO,4-Me)]A[Pro(4R-Me)]; ester 2-C)
12.8
